FYI, the data here is from patent US10494384B2.

- System: A549, human lung cancer
- ASSAY_INFO: preliminary anti-tumor screening in vitro, SRB method
- Format: cell-based
- SETTINGS: 0.1 μM, read-out: inhibition rates (%) A549
QUANTITY_NAME: inhibition at 0.1 µM (%)
Please reply with the bare figure in % and do not write the unit itself.

Consider the following illustrative entries.
>  <COMPOUND>
CC(C)C[C@H](NC(=O)N[C@@H](Cc1ccccc1)C(=O)N[C@@H](CC(C)C)C(=O)Nc1cnccn1)B1OC(C)(C)C(C)(C)O1

>  <inhibition at 0.1 µM [%]>
-9.11

$$$$
>  <COMPOUND>
COc1ccc(NC(=O)[C@H](Cc2ccccc2)NC(=O)N[C@@H](CC(C)C)B2OC3C[C@H]4C[C@H](C4(C)C)[C@@]3(C)O2)cc1 (some centres unmarked)

>  <inhibition at 0.1 µM [%]>
4.05

$$$$
>  <COMPOUND>
CC(C)C[C@H](NC(=O)CNC(=O)Nc1cccc(OCc2ccccc2)c1)B(O)O

>  <inhibition at 0.1 µM [%]>
7.42

$$$$
>  <COMPOUND>
CC(C)C[C@H](NC(=O)[C@H](Cc1ccccc1)NC(=O)NCc1cccc(Cl)c1Cl)B(O)O

>  <inhibition at 0.1 µM [%]>
65

$$$$
>  <COMPOUND>
CC(C)C[C@H](NC(=O)[C@H](Cc1ccccc1)NC(=O)NCc1ccccc1)B(O)O

>  <inhibition at 0.1 µM [%]>
2.67

$$$$

[in] What measured inhibition at 0.1 µM is associated with `CC(C)C[C@H](NC(=O)N[C@@H](CC(C)C)C(=O)N[C@@H](CC(C)C)C(=O)Nc1cnccn1)B(O)O` on A549, human lung cancer?
[out] -4.49

[in] What measured inhibition at 0.1 µM is associated with `CC(C)C[C@H](NC(=O)N[C@@H](Cc1ccccc1)C(=O)Nc1cccc(OCc2ccccc2)c1)B(O)O` on A549, human lung cancer?
[out] 6.4

[in] What measured inhibition at 0.1 µM is associated with `CC(C)C[C@H](NC(=O)CNC(=O)Nc1cc(Cl)ccc1Cl)B(O)O` on A549, human lung cancer?
[out] 1.88

[in] What measured inhibition at 0.1 µM is associated with `COc1ccc(OC)c(CNC(=O)N[C@@H](Cc2ccccc2)C(=O)N[C@@H](CC(C)C)B(O)O)c1` on A549, human lung cancer?
[out] 44.3

[in] What measured inhibition at 0.1 µM is associated with `CC(C)C[C@H](NC(=O)N[C@@H](Cc1ccccc1)C(=O)N[C@@H](CC(C)C)C(=O)Nc1cnccn1)B(O)O` on A549, human lung cancer?
[out] 1.55

[in] What measured inhibition at 0.1 µM is associated with `CC(C)C[C@H](NC(=O)[C@H](Cc1ccccc1)NC(=O)Nc1cccc(OCc2ccccc2)c1)B(O)O` on A549, human lung cancer?
[out] 5

[in] What measured inhibition at 0.1 µM is associated with CC(C)C[C@H](NC(=O)N[C@@H](Cc1ccccc1)C(=O)Nc1cnccn1)B1OC2C[C@H]3C[C@H](C3(C)C)[C@@]2(C)O1 (some centres unmarked) on A549, human lung cancer?
[out] -1.53

[in] What measured inhibition at 0.1 µM is associated with `CC(C)C[C@H](NC(=O)[C@H](Cc1ccccc1)NC(=O)Nc1cnccn1)B(O)O` on A549, human lung cancer?
[out] 5.46

[in] What measured inhibition at 0.1 µM is associated with `COc1ccc(NC(=O)[C@H](Cc2ccccc2)NC(=O)N[C@@H](CC(C)C)B(O)O)cc1` on A549, human lung cancer?
[out] 1.01

[in] What measured inhibition at 0.1 µM is associated with CC(C)C[C@H](NC(=O)N[C@@H](Cc1ccccc1)C(=O)NCC1CCCO1)B(O)O (some centres unmarked) on A549, human lung cancer?
[out] 5.55

[in] What measured inhibition at 0.1 µM is associated with `CC(C)C[C@H](NC(=O)[C@H](Cc1ccccc1)NC(=O)[C@H](Cc1ccccc1)NC(=O)Nc1cccc(OCc2ccccc2)c1)B(O)O` on A549, human lung cancer?
[out] 32.7

[in] What measured inhibition at 0.1 µM is associated with CC(C)C[C@H](NC(=O)[C@H](Cc1ccccc1)NC(=O)c1cnccn1)B(O)O [positive control, bortezomib, reference compound] on A549, human lung cancer?
[out] 59.9
